These data points were gathered from patent US9932326B2.

Toxicities (μM) PBM values by entry
system: human PBM cells; test: Cellular toxicity assay, PBM cells; format: cell-based

entry_smiles: COC(=O)N[C@H](C(=O)N1C[C@H](n2ccnn2)C[C@H]1c1ncc(-c2ccc(-c3ccc(-c4cnc([C@@H]5C[C@@H](n6cc([Si](C)(C)C)nn6)CN5C(=O)[C@@H](NC(=O)OC)C(C)C)[nH]4)cc3)cc2)[nH]1)C(C)C
Toxicities (μM) PBM: 3 µM
--
entry_smiles: COC(=O)N[C@H](C(=O)N1C[C@H](n2cc(-c3ccccc3)nn2)C[C@H]1c1ncc(-c2ccc(-c3ccc(-c4cnc([C@@H]5C[C@@H](n6cc(-c7ccccc7)nn6)CN5C(=O)[C@@H](NC(=O)OC)C(C)C)[nH]4)cc3)cc2)[nH]1)C(C)C
Toxicities (μM) PBM: >100 µM
--
entry_smiles: COC(=O)N[C@H](C(=O)N1C[C@H](n2cc([Si](C)(C)C)nn2)C[C@H]1c1ncc(-c2ccc(-c3ccc(-c4cnc([C@@H]5C[C@@H](n6cc([Si](C)(C)C)nn6)CN5C(=O)[C@@H](NC(=O)OC)C(C)C)[nH]4)cc3)cc2)[nH]1)C(C)C
Toxicities (μM) PBM: >100 µM
--
entry_smiles: COC(=O)N[C@H](C(=O)N1C[C@@H](n2cc(C(=O)OC)nn2)C[C@H]1c1ncc(-c2ccc(-c3ccc(-c4cnc([C@@H]5C[C@H](n6cc(C(=O)OC)nn6)CN5C(=O)[C@@H](NC(=O)OC)C(C)C)[nH]4)cc3)cc2)[nH]1)C(C)C
Toxicities (μM) PBM: 53 µM
--
entry_smiles: COC(=O)N[C@H](C(=O)N1C[C@@H](SC)C[C@H]1c1ncc(-c2ccc(-c3ccc(-c4cnc([C@@H]5C[C@H](SC)CN5C(=O)[C@@H](NC(=O)OC)C(C)C)[nH]4)cc3)cc2)[nH]1)C(C)C
Toxicities (μM) PBM: 15.6 µM
--
entry_smiles: COC(=O)N[C@H](C(=O)N1C[C@@H](n2cc(COC(C)=O)nn2)C[C@H]1c1ncc(-c2ccc(-c3ccc(-c4cnc([C@@H]5C[C@H](n6cc(COC(C)=O)nn6)CN5C(=O)[C@@H](NC(=O)OC)C(C)C)[nH]4)cc3)cc2)[nH]1)C(C)C
Toxicities (μM) PBM: 53 µM
